Assay text: chemical genetic growth profiling, strain panel (AID 1159580);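 also: tested at 20 µM; growth read once vehicle control cultures reached saturation at 30 °C; 1 = growth at the plate median or of vehicle wells; lower values mean less growth of the strain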
Applied conditions: S. cerevisiae deletion strains, growth OD, locus YOR080W, strain dia2, active compounds read low
Out of some 5,500 compounds screened, about 2,000 (36%) were called active. Roughly 18% stayed inconclusive and do not appear here. Some of the results follow.

Compound	normalized growth
CC1COc2c(N3CCN(C)CC3)c(F)cc3c(=O)c(C(=O)O)cn1c23 (stereo not drawn)	0.984
C#CCN(C)Cc1ccccc1	1.02
Oc1ccc2c(c1)O[C@H](c1ccc(O)c(O)c1)[C@@H](O)C2	1.02
CCn1cc(C(=O)O)c(=O)c2cc(F)c(N3CCNCC3)nc21	0.993
OCCc1ccccc1	0.996
Nc1ncn[nH]1	1.02
C=CCc1ccc(O)c(OC)c1	0.989
Oc1cc(O)c2c(c1)O[C@H](c1ccc(O)c(O)c1)[C@@H](O)C2	1
COc1ccc(C(=O)O)cc1OC	0.996
C[C@H]1COc2c(N3CCN(C)CC3)c(F)cc3c(=O)c(C(=O)O)cn1c23	1.04
N[C@@H](Cc1ccc(N(CCCl)CCCl)cc1)C(=O)O	0.995
COc1ccc(OC)c(C(O)CNC(=O)CN)c1 (stereo not drawn)	1.01
C=CCc1ccc(OC)cc1	1.02

###

Assay text: chemical genetic growth profiling, strain panel (AID 1159580)
Applied conditions: S. cerevisiae deletion strains, growth OD, locus YML124C, strain tub3, active compounds read low
The whole screen tested about 5,500 compounds, of which about 2,000 (36%) were called active. Another 18% or so got no clear call; they are omitted. This is one part of the list.
Result type: normalized growth

Compound	Result type	Measured value
C[C@]12CCC(=O)C=C1C=CC1C2CC[C@@]2(C)C1CC[C@@]21CCC(=O)O1 (stereo not given in full)	normalized growth	0.986
COC(=O)/C=C/C(C)=C/C=C/C(C)=C/C=C/C=C(C)/C=C/C=C(C)/C=C/C(=O)O	normalized growth	0.996
O=C(OCC(O)CO)c1ccccc1Nc1ccnc2cc(Cl)ccc12 (stereo not given)	normalized growth	0.988
COc1cc2c(cc1OC)C(=O)c1ccc(OC)c(OC)c1OCC(=O)C2	normalized growth	0.983
CCN(CC)Cc1ccc(Nc2ccnc3cc(Cl)ccc23)cc1O	normalized growth	1.01

###

Assay text: chemical genetic growth profiling, strain panel (AID 1159580)
Applied conditions: S. cerevisiae deletion strains, growth OD, locus YER016W, strain bim1, active compounds read low
The whole screen tested about 5,500 compounds, of which about 2,000 (36%) were called active. Not shown: some 18% with an inconclusive outcome. The list shows a part of the results.
Rule: normalized growth below 1 gives label 1. Equal to or above 1 gives label 0.

Compound	Category label
CCN(CC)Cc1ccc(Nc2ccnc3cc(Cl)ccc23)cc1O	label 0
C=C[C@@](C)(O)CCC1C(=C)C[C@H](OC(C)=O)C2C(C)(C)CCCC12C (stereo partly drawn)	label 0
CN(C)CCN(Cc1ccccc1)c1ccccn1	label 1
COc1ccc(-c2coc3cc(O)ccc3c2=O)c(O)c1O	label 1
CC[C@@H](C(=O)C(C)[C@@H](O)[C@H](C)CCc1ccc(C)c(O)c1C(=O)O)C1OC(CC)(C2CC[C@](O)(CC)[C@H](C)O2)C[C@@H]1C (stereo partly drawn)	label 0
O=S(=O)(O)CCS	label 1
O=C(/C=C/c1ccc(O)c(O)c1)OCCc1ccccc1	label 1

###

Assay text: chemical genetic growth profiling, strain panel (AID 1159580)
Applied conditions: S. cerevisiae deletion strains, growth OD, locus YKR091W, strain srl3, active compounds read low
The campaign covered roughly 5,500 compounds. About 2,000 (36%) were called active. About 18% were inconclusive and are not listed. This is one part of the list.

Molecule	normalized growth
C=CC[C@]1(O)CCC2C3CCC4=CC(=O)CCC4=C3C=C[C@@]21C (some centres not stated)	0.996
O=C1NCC2(CCN(CCc3ccccc3)CC2)O1	1.01
CCC(C)C(=O)O[C@@H]1C[C@@]2(C)[C@H](c3ccoc3)OC(=O)CC23OC2(C)O[C@]14[C@]1(C)[C@@H](CC(=O)OC)C5(C)CC1(O)[C@](O)(C5OC(=O)C1(C)OC1C)[C@@H](OC(C)=O)[C@]34O2 (some centres not stated)	0.996
CC1COc2c(N3CCN(C)CC3)c(F)cc3c(=O)c(C(=O)O)cn1c23 (configuration not stated)	0.984
C=CCc1ccc(O)c(OC)c1	0.992
Clc1ccc(C(c2ccc(Cl)cc2)C(Cl)(Cl)Cl)cc1	1
CN(C)CCOC(c1ccc(Cl)cc1)c1ccccn1 (configuration not stated)	1.02
CC1CCc2cc(F)cc3c(=O)c(C(=O)O)cn1c23 (configuration not stated)	0.994
Clc1ccc(C(OCCN2CCCCC2)c2ccccc2)cc1 (configuration not stated)	1.02
CO/N=C1/CN(c2nc3c(cc2F)c(=O)c(C(=O)O)cn3C2CC2)CC1CN (configuration not stated)	1.01
CCn1cc(C(=O)O)c(=O)c2cc(F)c(N3CCNC(C)C3)c(F)c21 (configuration not stated)	0.982
CCN1CCCC(OC(=O)C(c2ccccc2)c2ccccc2)C1 (configuration not stated)	0.992

###

Assay text: chemical genetic growth profiling, strain panel (AID 1159580)
Applied conditions: S. cerevisiae deletion strains, growth OD, locus YBR229C, strain ROT2, active compounds read low
Hit rate of the full screen: of about 5,500 compounds, about 2,000 (36%) were called active. About 18% were inconclusive and are not listed. This is one part of the list.

Molecule	normalized growth
COC(=O)C[C@H]1C2(C)CC34OC5(C)O[C@@]6([C@H](OC(C)=O)C(OC(C)=O)[C@]7(C)C(/C(=C(/O)C(C)C)C(=O)O[C@H]7c7ccoc7)[C@@]6(O5)[C@H](OC(C)=O)[C@@]3(O)C2OC(=O)C(C)C)[C@]14C (stereo partly drawn)	0.955
CCC(C)C(=O)O[C@@H]1C[C@@]2(C)[C@H](c3ccoc3)OC(=O)CC23OC2(C)O[C@]14[C@]1(C)[C@@H](CC(=O)OC)C5(C)CC1(O)[C@](O)(C5OC(=O)C1(C)OC1C)[C@@H](OC(C)=O)[C@]34O2 (stereo partly drawn)	1.01
S=c1nc2[nH]c3ccccc3c2n[nH]1	0.982

###

Below is a list of entries, each paired with its recorded normalized growth value.
Assay text: chemical genetic growth profiling, strain panel (AID 1159580);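 also: tested at 20 µM; growth read once vehicle control cultures reached saturation at 30 °C; 1 = growth at the plate median or of vehicle wells; lower values mean less growth of the strain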
Applied conditions: S. cerevisiae deletion strains, growth OD, locus YNL307C, strain MCK1, active compounds read low
The whole screen tested about 5,500 compounds, of which about 2,000 (36%) were called active. About 18% were inconclusive and are not listed. Some of the results follow.

Compound	normalized growth
O=C(O)c1cc2cc(F)ccc2[nH]1	1.02 (inactive)
CC1COc2c(N3CCN(C)CC3)c(F)cc3c(=O)c(C(=O)O)cn1c23 (centres undefined)	1.02 (inactive)
CCN(CC)Cc1ccc(Nc2ccnc3cc(Cl)ccc23)cc1O	0.997 (inactive)
COC(=O)[C@@H]1OC(=O)C2OC23[C@@]1(C)CCC1[C@]2(C)C(C[C@H](O)[C@]13C)C(C)(C)[C@H](OC(C)=O)C[C@@H]2OC(C)=O (some centres undefined)	0.998 (inactive)
COC(=O)/C=C/C(C)=C/C=C/C(C)=C/C=C/C=C(C)/C=C/C=C(C)/C=C/C(=O)O	1 (inactive)
CCCCC[C@H]1C(=O)O[C@H](C)[C@H](NC(=O)c2cccc(NC=O)c2O)C(=O)O[C@@H](C)[C@@H]1OC(=O)CC(C)C	0.967 (inactive)
CC1CCc2cc(F)cc3c(=O)c(C(=O)O)cn1c23 (centres undefined)	0.983 (inactive)
CC[C@@H](C(=O)C(C)[C@@H](O)[C@H](C)CCc1ccc(C)c(O)c1C(=O)O)C1OC(CC)(C2CC[C@](O)(CC)[C@H](C)O2)C[C@@H]1C (some centres undefined)	1.05 (inactive)
CCN1CCCC(OC(=O)C(c2ccccc2)c2ccccc2)C1 (centres undefined)	1.01 (inactive)

###

Below is a list of entries, each paired with its recorded normalized growth value.
Assay text: chemical genetic growth profiling, strain panel (AID 1159580);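 also: tested at 20 µM; growth read once vehicle control cultures reached saturation at 30 °C; 1 = growth at the plate median or of vehicle wells; lower values mean less growth of the strain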
Applied conditions: S. cerevisiae deletion strains, growth OD, locus YDR195W, strain ref2
The campaign covered roughly 5,500 compounds. About 2,000 (36%) were called active. Not shown: some 18% with an inconclusive outcome. This is one part of the list.

Molecule	normalized growth
COc1ccc2c(c1)OC1(O)COc3cc(OC)c(OC)cc3C1=C2 (centres undefined)	0.992
COc1ccc(CN(CCN(C)C)c2ccccn2)cc1	0.966
CN(C)CCN(Cc1ccccc1)c1ccccn1	1.02
NCCc1cnc[nH]1	0.994

###

Assay text: chemical genetic growth profiling, strain panel (AID 1159580);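 also: tested at 20 µM; growth read once vehicle control cultures reached saturation at 30 °C; 1 = growth at the plate median or of vehicle wells; lower values mean less growth of the strain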
Applied conditions: S. cerevisiae deletion strains, growth OD, locus YBR171W, strain sec66, active compounds read low
Screen size: about 5,500 compounds; about 2,000 (36%) were called active. Inconclusive results (about 18%) are left out. The list shows a part of the results.
Rule: normalized growth below 1 gives MET. Equal to or above 1 gives NOT MET.

Compound	Category label
C[C@]12CCC(=O)C=C1C=CC1C2CC[C@@]2(C)C1CC[C@@]2(O)CCC(=O)O (stereo partly drawn)	NOT MET
CCN(CC)Cc1ccc(Nc2ccnc3cc(Cl)ccc23)cc1O	NOT MET
C[C@]12CCC(=O)C=C1C=CC1C2CC[C@@]2(C)C1CC[C@@]21CCC(=O)O1 (stereo partly drawn)	MET
